Tested on: HL-60
EXPERIMENT SUMMARY: NCI tumour cell line growth inhibition, 48 h
The source made the active and inactive calls. Cut-off read from the data, not from the text of the source: active = GI50 up to about 1.1 µM and inactive = higher.
Hi! Could you answer with just one of these? t = active, f = inactive

Examples with answers:
| COMPOUND | ASSIGNED LABEL |
| --- | --- |
| Cc1cn(C2CC(N=[N+]=[N-])C(CO)O2)c(=O)n(CCCCO)c1=O (centres undefined) | f |
| C=CCN1C(=O)N/C(=C\c2ccc(Cl)cc2)C1=O | f |
| C[n+]1ccccc1/C1=c2\cc/c([nH]2)=C(\c2cccc[n+]2C)C2=N/C(=C(/c3cccc[n+]3C)C3C=CC(N3)/C(c3cccc[n+]3C)=C3/C=CC1=N3)C=C2 | f |

stdin: How was CC(C#N)NCc1ccc(C(C)NC(C)C#N)cc1 (centres undefined) classified in this test?
stdout: f

stdin: How was CC(N)Cc1ccc(F)cc1 (centres undefined) classified in this test?
stdout: f

stdin: How was CCCCOP1(=O)C=C(C)C(=C(Cl)Cl)C(C)=C1 (centres undefined) classified in this test?
stdout: f

stdin: How was `COc1ccc(-n2c(C)nc3ccc(/N=C/c4ccccc4)cc3c2=O)cc1` classified in this test?
stdout: f

stdin: How was `Cc1coc2c1C[C@@]1(C)[C@H](CCC[C@@H]1C)[C@H]2O` classified in this test?
stdout: f

stdin: How was Fc1ccc(C(OCCN2CCC3CCC(C2)N3CCCc2ccccc2)c2ccc(F)cc2)cc1 (centres undefined) classified in this test?
stdout: f

stdin: How was `O=[N+]([O-])c1cccc2nc3ccccc3c(NCCN(CCO)CCO)c12` classified in this test?
stdout: t

stdin: How was CCCCS(=O)(=O)CCC(N)C(=O)O (centres undefined) classified in this test?
stdout: f

stdin: How was C=CC[P@@]1(=O)O[C@H](c2ccccc2)C(C)N1C(C)C (some centres undefined) classified in this test?
stdout: f

Reference for the values: ChEMBL document CHEMBL1201862
